B1: tRNA (parent)
chain: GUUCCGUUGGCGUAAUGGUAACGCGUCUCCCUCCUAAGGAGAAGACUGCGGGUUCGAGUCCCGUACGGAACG

Variants of: B1
assayRemarks: yeast fitness relative to wild type (ratio to wild type); higher = fitter; tRNA-Arg(CCU), competitive growth, 37 C, YPD
This sample holds only a part of the variants without activity.
Exercise: state measured yeast fitness for each of the variants provided.
Reply with the value as a number alone.

Ask | Identify the reported yeast fitness for the following entry. C11U C29U
Reply | 0.738

Ask | Identify the reported yeast fitness for the following entry. G23C C27G A45G G52A
Reply | 0.57

Ask | Identify the reported yeast fitness for the following entry. G17A U35G G48C C66U
Reply | 0.535

Ask | Identify the reported yeast fitness for the following entry. C4U G6A C46G
Reply | 0.623

Ask | Identify the reported yeast fitness for the following entry. C11U G41A
Reply | 0.902

Ask | Identify the reported yeast fitness for the following entry. C5A C11A C30U C31A G58A G67C
Reply | 0.548

Ask | Identify the reported yeast fitness for the following entry. C5U A36U C60U
Reply | 0.81

Ask | Identify the reported yeast fitness for the following entry. C31U A42G C55U
Reply | 0.511

Ask | Identify the reported yeast fitness for the following entry. C4A A37U C55U
Reply | 0.585

Ask | Identify the reported yeast fitness for the following entry. A21C U26G
Reply | 0.642

Ask | Identify the reported yeast fitness for the following entry. C22G U64G
Reply | 0.8

Ask | Identify the reported yeast fitness for the following entry. U2C G51U G58C
Reply | 0.548

Ask | Identify the reported yeast fitness for the following entry. C4U A36G G39A
Reply | 0.679
